Taken from ChEMBL document CHEMBL4177703.

Assay: Clearance in Sprague-Dawley rat at 5 mg/kg, iv after 24 hrs
Type: ADME, organism-based
Conditions: in vivo
Below: a set of entries, each annotated with reported clearance.

>  <structure-as-smiles>
CO[C@@]12C[C@@H](C(=O)N[C@]3(C(=O)NS(=O)(=O)C4CC4)C[C@H]3C3CC3)N(C1)C(=O)[C@H](C(C)(C)C)NC(=O)OCCCCCOc1ccc3ccc2cc3c1

>  <unit-name>
mL/min/kg

>  <clearance>
19

$$$$
>  <structure-as-smiles>
COc1cc2ccc3cc2cc1CCCCCCOC(=O)N[C@@H](C(C)(C)C)C(=O)N1C[C@@]3(OC)C[C@H]1C(=O)N[C@]1(C(=O)NS(=O)(=O)C2CC2)C[C@H]1C1CC1

>  <unit-name>
mL/min/kg

>  <clearance>
2

$$$$
>  <structure-as-smiles>
COc1cc2ccc3cc2cc1OCCCN(C1CC1)CCOC(=O)N[C@@H](C(C)(C)C)C(=O)N1C[C@@]3(OC)C[C@H]1C(=O)N[C@]1(C(=O)NS(=O)(=O)C2CC2)C[C@H]1C1CC1

>  <unit-name>
mL/min/kg

>  <clearance>
3.5

$$$$
>  <structure-as-smiles>
COc1cc2ccc3cc2cc1CCCC(C)(C)CCOC(=O)N[C@@H](C(C)(C)C)C(=O)N1C[C@@]3(OC)C[C@H]1C(=O)N[C@]1(C(=O)NS(=O)(=O)C2CC2)C[C@H]1C1CC1

>  <unit-name>
mL/min/kg

>  <clearance>
3.5

$$$$

* * *

Below: a set of entries, each annotated with reported concentration at 24 h.
Assay: Drug concentration in Sprague-Dawley rat liver at 5 mg/kg, iv after 24 hrs
Format: ADME, organism-based
Conditions: read-out: Drug uptake
measured-quantity: concentration at 24 h (µM)

>  <structure-as-smiles>
COc1cc2ccc3cc2cc1CCCC(C)(C)CCOC(=O)N[C@@H](C(C)(C)C)C(=O)N1C[C@@]3(OC)C[C@H]1C(=O)N[C@]1(C(=O)NS(=O)(=O)C2CC2)C[C@H]1C1CC1

>  <unit-name>
µM

>  <numeric-result>
100

$$$$
>  <structure-as-smiles>
CO[C@@]12C[C@@H](C(=O)N[C@]3(C(=O)NS(=O)(=O)C4CC4)C[C@H]3C3CC3)N(C1)C(=O)[C@H](C(C)(C)C)NC(=O)OCCCCCOc1ccc3ccc2cc3c1

>  <unit-name>
µM

>  <numeric-result>
45

$$$$

* * *

Assay: Drug concentration in Sprague-Dawley rat liver at 15 mg/kg, po after 6 hrs
Assay type: ADME, organism-based
Settings: read-out: Drug uptake
measured-quantity: concentration at 6 h (µM)

>  <structure-as-smiles>
C=C[C@@H]1C[C@]1(NC(=O)[C@@H]1C[C@]2(OC)CN1C(=O)[C@H](C(C)(C)C)NC(=O)OCCCCCCc1cc3cc2ccc3cc1OC)C(=O)NS(=O)(=O)C1CC1

>  <numeric-result>
108

$$$$
